Parameter 'readout' = IC50; parameter 'system' = Protein Wnt-3a (Mus musculus).
Answers are plain numbers, in µM.

{"cpdSmiles": "CCOP(=O)(CCP(=O)(OCC)OCC)OCC", "IC50, µM": 11.8}

Field: next compound
Can you look up the measured IC50 of COc1ccc(CN(C)C(=O)c2cccc(NC(=O)Cc3sc(N4CCCCC4)nc3O)c2)c(OC)c1 for me? 21.7

----------
Parameter 'readout' = IC50; parameter 'system' = Protein Wnt-3a (Mus musculus, UniProt P27467).
Sequence (P27467 whole entry): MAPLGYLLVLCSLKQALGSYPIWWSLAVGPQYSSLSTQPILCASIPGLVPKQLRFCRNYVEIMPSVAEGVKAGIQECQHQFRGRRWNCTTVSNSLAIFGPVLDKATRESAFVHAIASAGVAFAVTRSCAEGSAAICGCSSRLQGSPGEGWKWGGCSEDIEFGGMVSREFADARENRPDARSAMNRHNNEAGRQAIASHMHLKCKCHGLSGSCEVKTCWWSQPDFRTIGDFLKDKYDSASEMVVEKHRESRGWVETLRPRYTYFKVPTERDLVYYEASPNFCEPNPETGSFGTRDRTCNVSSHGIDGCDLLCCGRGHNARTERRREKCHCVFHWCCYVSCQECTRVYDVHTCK

{"compound": "Cc1ccc(-c2csc(NC(=O)c3c(C)noc3C)n2)s1", "valueKind": "IC50", "result": "> 50 µM"}

Dear colleague, could you send me IC50 for each of the items below? Thanks.
1. COc1ccc(Nc2nc(N3CCOCC3)nc(N3CCOCC3)n2)c(OC)c1
2. C[n+]1c2n(c3ccccc31)N=C(c1ccccc1)CS2
3. O=C(CCCCCCC(=O)Nc1ccccc1)NO
4. CCCCCCCNC1=CC(=O)CC(c2ccccc2)C1 (configuration not stated)
5. CC(C)(C)OC(=O)N1CCC(c2cc(-c3cccs3)n[nH]2)CC1
6. COc1cc(C(=O)NC2CCN(C)CC2)ccc1Nc1ncc2c(n1)N(CCc1ccccc1)CCC(=O)N2C

1. > 50 µM
2. > 50 µM
3. > 50 µM
4. > 50 µM
5. > 50 µM
6. > 50 µM

Dear colleague, could you send me IC50 for each of the items below? Thanks.
1. CCCCCCCOc1ccc(OC(=O)c2cccnc2)cc1 [(4-heptoxyphenyl) pyridine-3-carboxylate]
2. O=C(Nc1cc2c3c(c1)C1CCCC1CN3CC1CCCC21)c1ccc([N+](=O)[O-])cc1 (configuration not stated)
3. CC(C)(C)[C@H]1COC(=O)[C@H](NC(=O)OCC2c3ccccc3-c3ccccc32)C/C=C\C[C@@H](CC(=O)N(CCO)Cc2ccccc2)C(=O)N1

1: > 12.5 µM; 2: > 12.5 µM; 3: > 12.5 µM

Dear colleague, could you send me IC50 for each of the items below? Thanks.
1. CC(N=Nc1ccc(Cl)nn1)c1ccccc1O (configuration not stated)
2. O=C(Nc1ccncc1)c1ccc(-c2ccccc2)cc1 [4-phenyl-N-(4-pyridyl)benzamide]
3. O=C(NC1CCCC1)c1cc(COc2ccc3ncccc3c2)on1
4. CCN1C(=O)CCN(C2CCCC2)c2nc(Nc3ccc(C(=O)NC4CCN(C)CC4)cc3OC)ncc21

1. > 50 µM
2. > 50 µM
3. > 50 µM
4. > 50 µM

Dear colleague, could you send me IC50 for each of the items below? Thanks.
1. O=C(C[n+]1cc(-c2ccccc2)n2c1CCCCC2)c1ccc(Cl)cc1
2. COc1cc2c(c(OC)c1OC)-c1ccc(N(C)CC(OC)OC)c(=O)cc1[C@@H](NC(C)=O)CC2
3. CCn1c(=O)cc(SCC(=O)N2CCN(C3CCCCC3)CC2)c2ccccc21
4. Clc1ccc(-c2c[n+](Cc3ccc(Cl)cc3Cl)c3n2CCCCC3)cc1
5. Clc1ccc(-[n+]2cc(-c3ccc(Br)cc3)n3c2CCCCC3)cc1
6. CCCCn1c(SCc2c(C)noc2C)nc2cc(S(N)(=O)=O)ccc21
7. Brc1ccc(-[n+]2c(-c3ccccc3)cc(-c3ccccc3)cc2-c2ccccc2)cc1

> 50 µM
> 50 µM
> 50 µM
> 12.5 µM
> 50 µM
> 50 µM
15.6 µM

Field: IC50 (Protein Wnt-3a (Mus musculus, UniProt P27467)). Entry: Cc1ccc(O)c(NC(=O)COc2cc(C)ccc2C)c1 > 50 µM
